B1: tRNA (parent)
chain: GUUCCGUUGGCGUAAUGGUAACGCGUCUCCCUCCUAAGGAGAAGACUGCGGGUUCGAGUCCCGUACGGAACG

- Variants of: B1
- assay overview: yeast fitness relative to wild type (ratio to wild type); higher = fitter; tRNA-Arg(CCU), competitive growth, 37 C, YPD
This sample holds only a part of the variants without activity.
Quick rule: yeast fitness of at least 0.7 means TRUE, below that means FALSE.

{"sequence variant": "A21C C62U G68C", "label class": "FALSE"}
{"sequence variant": "G10A G38A A45G A70G", "label class": "FALSE"}
{"sequence variant": "G25A A40C", "label class": "TRUE"}
{"sequence variant": "G10A A37C A57C", "label class": "FALSE"}
{"sequence variant": "A14G C34U", "label class": "FALSE"}
{"sequence variant": "A20U G67C", "label class": "TRUE"}
{"sequence variant": "U2G C46G", "label class": "TRUE"}
{"sequence variant": "A36U U59C", "label class": "FALSE"}
{"sequence variant": "C5A U7C A65C", "label class": "FALSE"}
{"sequence variant": "C22A G48A C49U G50A G51C U64A A70C", "label class": "FALSE"}
{"sequence variant": "C4A C11U C30U G39C C55G", "label class": "FALSE"}
{"sequence variant": "C4U C11G C24A A36U A43C", "label class": "FALSE"}
{"sequence variant": "C30U G58A", "label class": "TRUE"}
{"sequence variant": "C5U G10A A70U", "label class": "FALSE"}
{"sequence variant": "U3C U16C C49G", "label class": "FALSE"}
{"sequence variant": "C11U C22G G52C G56C", "label class": "FALSE"}
{"sequence variant": "U16A A40G", "label class": "TRUE"}
{"sequence variant": "U2C G44A A70C", "label class": "TRUE"}
{"sequence variant": "C4A C24U A36U G39C C46G C55A C66G", "label class": "FALSE"}
{"sequence variant": "A37G G44A", "label class": "TRUE"}
{"sequence variant": "G9A G12U A14U A37U C49G C60G", "label class": "FALSE"}
{"sequence variant": "C5A G6C C11G U19A C49A", "label class": "FALSE"}
{"sequence variant": "G25C G44A", "label class": "TRUE"}
{"sequence variant": "G9C C24U C30G G52A C61U", "label class": "FALSE"}
{"sequence variant": "A14C G48C", "label class": "FALSE"}
{"sequence variant": "U26C C46G", "label class": "TRUE"}
{"sequence variant": "U3C C31U C62U", "label class": "TRUE"}
{"sequence variant": "G10C A43U C46G", "label class": "FALSE"}
{"sequence variant": "A14C C29U C31U A36G A45U A70G", "label class": "FALSE"}
{"sequence variant": "G9A G56A C62U G67A", "label class": "FALSE"}
{"sequence variant": "C24G G48C A57G G68C", "label class": "FALSE"}
{"sequence variant": "A20U C29G U47C C49G G63C", "label class": "FALSE"}
{"sequence variant": "G18C C24G C46A", "label class": "FALSE"}
{"sequence variant": "G12A A14C A20C A42G G44A", "label class": "FALSE"}
{"sequence variant": "G17C C30G C49U A57C C61G", "label class": "FALSE"}
{"sequence variant": "G18C A40C C49G G63A", "label class": "FALSE"}
{"sequence variant": "C22G A57G C61A", "label class": "FALSE"}
{"sequence variant": "A15C U19A", "label class": "TRUE"}
{"sequence variant": "A14G A37C", "label class": "TRUE"}
{"sequence variant": "C22U U35C A36C", "label class": "FALSE"}
{"sequence variant": "C11G C30A C31G G50A", "label class": "FALSE"}
{"sequence variant": "C5A A40U", "label class": "TRUE"}
{"sequence variant": "C34U G52C C55U G58A", "label class": "FALSE"}
{"sequence variant": "C27G C33G A57C", "label class": "FALSE"}

Data origin, for the record: the RNAGym collection of RNA variant scans (doi:10.1126/science.aae0568)
